Assign Transport (%) RP-HPLC-PDA to each entry below.
- Test system: in vitro bovine BBB cell-based model
- test-details: In vitro bovine BBB cell-based model transport assay
- condition-set: 200 μM peptide in Ringer-HEPES, 2 h, 37 °C; quantified by RP-HPLC-PDA (220 nm); mean ± SD, n = 3; some values approximate (below LOQ)
Square brackets hold non-standard residues; d marks the D form. Peptide text beside a SMILES is read from it. Tic(7-OH) = O=C(O)[C@@H]1Cc2ccc(O)cc2CN1; Phe(4-NH2) = Nc1ccc(C[C@H](N)C(=O)O)cc1
# unit: % | format: bare number

Input: Report Transport (%) RP-HPLC-PDA for CC[C@H](C)[C@H](NC(=O)[C@H](C)NC(=O)[C@H](Cc1c[nH]cn1)NC(C)=O)C(=O)N[C@@H](Cc1ccc(N)cc1)C(=O)N1CCC[C@H]1C(=O)N[C@@H](CCCNC(=N)N)C(=O)N[C@@H](Cc1c[nH]cn1)C(N)=O [Peptide 4L, Ac-HAIxPRH-NH2] (Ac-HAI[Phe(4-NH2)]PRH-NH2) please.
Output: 2.0

Input: Can you check CC[C@H](C)[C@H](NC(=O)[C@H](C)NC(=O)[C@H](Cc1c[nH]cn1)NC(C)=O)C(=O)N1Cc2cc(O)ccc2C[C@H]1C(=O)N1CCC[C@H]1C(=O)N[C@@H](CCCNC(=N)N)C(=O)N[C@@H](Cc1c[nH]cn1)C(N)=O [Peptide 3L, Ac-HAIxPRH-NH2] (Ac-HAI[Tic(7-OH)]PRH-NH2) next?
Output: 2.0

====

- test-details: In vitro bovine BBB cell-based model transport assay
- condition-set: bovine, Papp MALDI-TOF MS, 200 μM peptide in Ringer-HEPES, 2 h, 37 °C; quantified by MALDI-TOF MS with heavy internal standard; mean ± SD, n = 3
Square brackets hold non-standard residues; d marks the D form. Peptide text beside a SMILES is read from it. Tic(7-OH) = O=C(O)[C@@H]1Cc2ccc(O)cc2CN1; Phe(4-F) = N[C@@H](Cc1ccc(F)cc1)C(=O)O
value-type: Papp at 2 h, 200 μM (×10⁻⁶ cm/s)
Give the quantity in ×10⁻⁶ cm/s, number only.

Input: Recorded Papp at 2 h, 200 μM for CC[C@H](C)[C@H](NC(=O)[C@H](C)NC(=O)[C@H](Cc1c[nH]cn1)NC(C)=O)C(=O)N1Cc2cc(O)ccc2C[C@H]1C(=O)N1CCC[C@H]1C(=O)N[C@@H](CCCNC(=N)N)C(=O)N[C@@H](Cc1c[nH]cn1)C(N)=O [Peptide 3L, Ac-HAIxPRH-NH2] (Ac-HAI[Tic(7-OH)]PRH-NH2) , please?
Output: 2.1

Input: Now try CC[C@@H](C)[C@@H](NC(=O)[C@@H](Cc1ccc(O)cc1)NC(=O)[C@H]1CCCN1C(=O)[C@@H](CCCNC(=N)N)NC(=O)[C@@H](Cc1c[nH]cn1)NC(C)=O)C(=O)N[C@H](C)C(=O)N[C@H](Cc1c[nH]cn1)C(N)=O [Peptide 6D, Ac-hrpyiah-NH2] .
Output: 2.6

Input: What do you get for CC[C@H](C)[C@H](NC(=O)[C@H](C)NC(=O)[C@H](Cc1c[nH]cn1)NC(C)=O)C(=O)N[C@@H](Cc1ccc(F)cc1)C(=O)N1CCC[C@H]1C(=O)N[C@@H](CCCNC(=N)N)C(=O)N[C@@H](Cc1c[nH]cn1)C(N)=O [Peptide 5L, Ac-HAIxPRH-NH2] (Ac-HAI[Phe(4-F)]PRH-NH2) ?
Output: 2.6

====

Please provide measured Papp at 2 h, 200 μM for the entries that follow.
- test-details: In vitro bovine BBB cell-based model transport assay
- condition-set: bovine, Papp MALDI-TOF MS, 200 μM peptide in Ringer-HEPES, 2 h, 37 °C; quantified by MALDI-TOF MS with heavy internal standard; mean ± SD, n = 3
Numbered stars: 1 amine (or outer) side, 2 acyl side, 3 side chain; on linkers, the order of the positions; unused ones are H or OH. Square brackets hold non-standard residues; d marks the D form. Peptide text beside a SMILES is read from it. X1 = O=C([C@H]1[C@@H](c2ccccc2)CCN1[*:1])[*:2]; X2 = O=C([C@@H]1[C@H](c2ccccc2)CCN1[*:1])[*:2]; dAla(4-thiazolyl) = N[C@H](Cc1cscn1)C(=O)O; Phe(4-NH2) = Nc1ccc(C[C@H](N)C(=O)O)cc1; hCha = N[C@@H](CCC1CCCCC1)C(=O)O
Lab book: enter the figure in ×10⁻⁶ cm/s, no units written.

Input: Returns the measured Papp at 2 h, 200 μM for the input molecule. Input: CC[C@@H](C)[C@@H](NC(=O)[C@@H](Cc1ccc(O)cc1)NC(=O)[C@H]1CCCN1C(=O)[C@@H](CCCNC(=N)N)NC(=O)[C@@H](Cc1cscn1)NC(C)=O)C(=O)N[C@H](C)C(=O)N[C@H](Cc1c[nH]cn1)C(N)=O [Peptide 9D, Ac-xrpyiah-NH2] (Ac-[dAla(4-thiazolyl)][dR][dP][dY][dI][dA][dH]-NH2)
Output: 2.4

Input: Query CC[C@H](C)[C@H](NC(=O)[C@H](C)NC(=O)[C@H](Cc1c[nH]cn1)NC(C)=O)C(=O)N[C@@H](Cc1ccc(O)cc1)C(=O)N1CCC[C@H]1C(=O)N[C@@H](CCCNC(=N)N)C(=O)N[C@@H](Cc1c[nH]cn1)C(N)=O [Peptide 1L, Ac-HAIYPRH-NH2] next
Output: 3.2

Input: Repeat for the following molecule: CC[C@@H](C)[C@@H](NC(=O)[C@@H](Cc1ccc(O)cc1)NC(=O)[C@H]1[C@@H](c2ccccc2)CCN1C(=O)[C@@H](CCCNC(=N)N)NC(=O)[C@@H](Cc1c[nH]cn1)NC(C)=O)C(=O)N[C@H](C)C(=O)N[C@H](Cc1c[nH]cn1)C(N)=O [Peptide 7-D, Ac-hrxyiah-NH2] (Ac-[dH][dR][X1][dY][dI][dA][dH]-NH2)
Output: 6

Input: CC[C@H](C)[C@H](NC(=O)[C@H](C)NC(=O)[C@H](Cc1c[nH]cn1)NC(C)=O)C(=O)N[C@@H](Cc1ccc(N)cc1)C(=O)N1CCC[C@H]1C(=O)N[C@@H](CCCNC(=N)N)C(=O)N[C@@H](Cc1c[nH]cn1)C(N)=O [Peptide 4L, Ac-HAIxPRH-NH2] (Ac-HAI[Phe(4-NH2)]PRH-NH2) , same question.
Output: 1.8

Input: Again, but for CC[C@@H](C)[C@@H](NC(=O)[C@@H](Cc1ccc(O)cc1)NC(=O)[C@H]1CCCCN1C(=O)[C@@H](CCCNC(=N)N)NC(=O)[C@@H](Cc1c[nH]cn1)NC(C)=O)C(=O)N[C@H](C)C(=O)N[C@H](Cc1c[nH]cn1)C(N)=O [Peptide 8D, Ac-hrxyiah-NH2]
Output: 6.3

Input: Note, next up: CC[C@@H](C)[C@@H](NC(=O)[C@@H](Cc1ccc(O)cc1)NC(=O)[C@@H]1[C@H](c2ccccc2)CCN1C(=O)[C@@H](CCCNC(=N)N)NC(=O)[C@@H](Cc1c[nH]cn1)NC(C)=O)C(=O)N[C@H](C)C(=O)N[C@H](Cc1c[nH]cn1)C(N)=O [7+D, Ac-hrxyiah-NH2] (Ac-[dH][dR][X2][dY][dI][dA][dH]-NH2)
Output: 5.7

Input: Can you check CC(=O)N[C@@H](Cc1c[nH]cn1)C(=O)N[C@@H](C)C(=O)N[C@@H](CCC1CCCCC1)C(=O)N[C@@H](Cc1ccc(O)cc1)C(=O)N1CCC[C@H]1C(=O)N[C@@H](CCCNC(=N)N)C(=O)N[C@@H](Cc1c[nH]cn1)C(N)=O [Peptide 2L, Ac-HAxYPRH-NH2] (Ac-HA[hCha]YPRH-NH2) next?
Output: 2.8

====

- Test system: in vitro bovine BBB cell-based model
- test-details: In vitro bovine BBB cell-based model transport assay
- condition-set: 200 μM peptide in Ringer-HEPES, 2 h, 37 °C; quantified by RP-HPLC-PDA (220 nm); mean ± SD, n = 3; some values approximate (below LOQ)
Numbered stars: 1 amine (or outer) side, 2 acyl side, 3 side chain; on linkers, the order of the positions; unused ones are H or OH. Square brackets hold non-standard residues; d marks the D form. Peptide text beside a SMILES is read from it. X1 = O=C([C@H]1[C@@H](c2ccccc2)CCN1[*:1])[*:2]; hCha = N[C@@H](CCC1CCCCC1)C(=O)O
value-type: Transport (%) RP-HPLC-PDA
Reply with the number, then its unit.

Input: Suppose we examine the compound CC[C@@H](C)[C@@H](NC(=O)[C@@H](Cc1ccc(O)cc1)NC(=O)[C@H]1[C@@H](c2ccccc2)CCN1C(=O)[C@@H](CCCNC(=N)N)NC(=O)[C@@H](Cc1c[nH]cn1)NC(C)=O)C(=O)N[C@H](C)C(=O)N[C@H](Cc1c[nH]cn1)C(N)=O [Peptide 7-D, Ac-hrxyiah-NH2] (Ac-[dH][dR][X1][dY][dI][dA][dH]-NH2) ; what Transport (%) RP-HPLC-PDA value has been reported?
Output: 5.7 ± 1.8%

Input: Moving on to CC[C@@H](C)[C@@H](NC(=O)[C@@H](Cc1ccc(O)cc1)NC(=O)[C@H]1CCCN1C(=O)[C@@H](CCCNC(=N)N)NC(=O)[C@@H](Cc1c[nH]cn1)NC(C)=O)C(=O)N[C@H](C)C(=O)N[C@H](Cc1c[nH]cn1)C(N)=O [Peptide 6D, Ac-hrpyiah-NH2]
Output: 5.3 ± 1.8%

Input: Another compound to check: CC(=O)N[C@@H](Cc1c[nH]cn1)C(=O)N[C@@H](C)C(=O)N[C@@H](CCC1CCCCC1)C(=O)N[C@@H](Cc1ccc(O)cc1)C(=O)N1CCC[C@H]1C(=O)N[C@@H](CCCNC(=N)N)C(=O)N[C@@H](Cc1c[nH]cn1)C(N)=O [Peptide 2L, Ac-HAxYPRH-NH2] (Ac-HA[hCha]YPRH-NH2)
Output: 3.9 ± 0.9%

Input: // next record CC[C@H](C)[C@H](NC(=O)[C@H](C)NC(=O)[C@H](Cc1c[nH]cn1)NC(C)=O)C(=O)N[C@@H](Cc1ccc(O)cc1)C(=O)N1CCC[C@H]1C(=O)N[C@@H](CCCNC(=N)N)C(=O)N[C@@H](Cc1c[nH]cn1)C(N)=O [Peptide 1L, Ac-HAIYPRH-NH2]
Output: 2.9 ± 1.4%
